This collection of values is drawn from ChEMBL document CHEMBL4513216.

Test system: Plasmodium berghei
ASSAY REMARKS: Screen against P. berghei liver stage (PbLuc), transformed with Luciferase, at 10uM
Format: functional, HepG2
PROTOCOL CONDITIONS: tested at 10 uM
About 8,600 (12%) of roughly 69,000 compounds showed an effect of 50% or more. For the sample, strong results were picked, then their nearest neighbours and some compounds at random.
ASSAY METRIC: INHIBITION (%)
Numbers only, in %.

Record excerpt, results attached:
COc1ccc(-c2cc3nc(CCNC(=O)CN(C)C)nn3cn2)cc1	19.4
Cc1ccc2ncnc(N3CCOCC3c3c(C)nn(C)c3C)c2c1 (configuration not stated)	30
CCc1nc(N)nc(N(C)Cc2nncn2CCOC)c1C	73.5
Cc1ccc(OCCSC2=NCCN2)cc1	32.5
Cc1nn(C)c(C)c1C1COCCN1c1ncnc2c(C)cccc12 (configuration not stated)	28.6

Would you mind listing INHIBITION for each of the following molecules?
1. COCCn1cnnc1CN(C)c1nc(N)ncc1C
2. CC(C)Cn1cncc1-c1nc2c([nH]1)CCCNC2=O

[0.897, -21.8]

Would you mind listing INHIBITION for each of the following molecules?
1. O=C([C@H]1CCCO1)N1CC[C@H](O)[C@@H]1Cc1ccncc1
2. Cc1nn(C)c(C)c1C1COCCN1c1ncncc1Br (configuration not stated)
3. c1csc(CN2CC(c3nc(-c4cnccn4)no3)C2)c1
4. O=C1NC2(CCN(C(=O)N3CCOCC3)CC2)CC1c1cccnc1 (configuration not stated)
5. O=C1[C@@H]2CN(c3ncnc4sccc34)C[C@]2(C(=O)O)CN1CC1CC1

1. 33.2
2. 57.7
3. -12.6
4. 9.34
5. 29.2

###

Test system: Plasmodium berghei
ASSAY REMARKS: Screen against P. berghei liver stage (PbLuc), transformed with Luciferase, at 10uM
Type: functional, HepG2
PROTOCOL CONDITIONS: tested at 10 uM
Among all 69,000 compounds or so, about 8,600 (12%) showed an effect of 50% or more. Many of the other results were omitted from the sample, so strong results are more common in it than they were.
// map INHIBITION to label using lower level (below 20%), middle level (20% to below 40%), upper level (40% or more)

Previously resolved entries follow.
COC(=O)c1sccc1S(=O)(=O)N1CCC(Oc2cccc(C)n2)CC1	middle level
CCOC(=O)CSc1nnc([C@@H](N)CC(C)C)o1	lower level
CCS(=O)(=O)N1CCC(NC(=O)c2cc(C(C)C)ccc2O)CC1	lower level
CCCN1CCC=C(C2c3nc[nH]c3CCN2C(=O)c2ccco2)C1 (centres undefined)	middle level
CCN(CC)c1ccc2ccc(C(=O)N(CCOC)CCOC)cn12	upper level

Any idea which band CN(C)c1ncnc2c1CCN(C(=O)c1sccc1S(N)(=O)=O)C2 is in? lower level

Any idea which band CSC(C)C(=O)Nc1ccnn1-c1ccccc1C (centres undefined) is in? lower level

Any idea which band COc1ccc(CN(C)Cc2ccnc(C3CCCO3)n2)cc1 (centres undefined) is in? middle level

Any idea which band CCN1C(=O)C[C@@H]2[C@@H]1CCN2S(=O)(=O)Cc1ccc(C)cc1 is in? lower level

Any idea which band Cc1ccccc1S(=O)(=O)N1CCc2c(ncnc2N(C)C)C1 is in? upper level

Any idea which band COC(=O)c1sccc1S(=O)(=O)N1CCC(Oc2cccnn2)CC1 is in? middle level

Any idea which band CN(Cc1ccco1)[C@@H]1CN(Cc2nccs2)C[C@@H]2CCCO[C@@H]21 is in? upper level
